B1: OAS1 (parent)
chain: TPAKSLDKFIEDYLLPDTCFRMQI

- Variants of: B1
- PROTOCOL TEXT: protein stability index of a GFP-peptide fusion (GPS, HEK-293T) (PSI 1-6); higher = more stable;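 further: lentivirally expressed fusions sorted by FACS into six bins by GFP to DsRed ratio, PSI derived from sequencing read proportions per bin multiplied by bin number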
- RECORDED CONDITIONS: c terminus: a fixed tail appended
Rule: protein stability index of 2 or more gives t; anything lower gives f.

Study these solved cases before continuing.
>>> group("L14S")
"f"
>>> group("R21T")
"t"
>>> group("I10E")
"t"
>>> group("L6H")
"t"
>>> group("R21S")
"t"

Task: Is reported protein stability index greater than or equal to 2 here: D12C
Output: f

Task: Is reported protein stability index greater than or equal to 2 here: D12H
Output: t

Task: Is reported protein stability index greater than or equal to 2 here: M22D
Output: t

Task: Is reported protein stability index greater than or equal to 2 here: F20A
Output: t

Task: Is reported protein stability index greater than or equal to 2 here: L6E
Output: f

Task: Is reported protein stability index greater than or equal to 2 here: T18V
Output: t

Task: Is reported protein stability index greater than or equal to 2 here: L15I
Output: t

Task: Is reported protein stability index greater than or equal to 2 here: R21F
Output: t

Task: Is reported protein stability index greater than or equal to 2 here: C19N
Output: t

Task: Is reported protein stability index greater than or equal to 2 here: Y13S
Output: t

Task: Is reported protein stability index greater than or equal to 2 here: D12T
Output: t

Task: Is reported protein stability index greater than or equal to 2 here: S5E
Output: f

Task: Is reported protein stability index greater than or equal to 2 here: K8H
Output: f

Task: Is reported protein stability index greater than or equal to 2 here: I24A
Output: f
